System: ACAT enzyme (rabbit intestinal mucosa microsome) (Oryctolagus cuniculus) | Read-out: pIC50
Sequence (G1SFD9 1-524): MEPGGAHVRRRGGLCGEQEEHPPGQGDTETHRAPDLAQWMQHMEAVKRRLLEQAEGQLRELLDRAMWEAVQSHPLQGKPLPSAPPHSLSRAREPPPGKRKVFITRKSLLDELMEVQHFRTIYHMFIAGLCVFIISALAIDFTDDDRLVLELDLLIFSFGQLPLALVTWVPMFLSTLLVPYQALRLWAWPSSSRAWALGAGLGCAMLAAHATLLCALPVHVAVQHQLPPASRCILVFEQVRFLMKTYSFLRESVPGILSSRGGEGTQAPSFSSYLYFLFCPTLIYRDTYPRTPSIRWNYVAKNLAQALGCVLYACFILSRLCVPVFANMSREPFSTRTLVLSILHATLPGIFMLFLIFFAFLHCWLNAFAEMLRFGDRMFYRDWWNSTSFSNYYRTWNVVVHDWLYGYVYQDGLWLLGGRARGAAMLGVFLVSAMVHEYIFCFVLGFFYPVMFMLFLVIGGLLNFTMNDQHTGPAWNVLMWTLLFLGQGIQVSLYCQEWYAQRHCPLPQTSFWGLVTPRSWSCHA
# pIC50: negative log10 of molar concentration; output just the value

The cases that follow already have their pIC50 on record.
CCCCCCCCCCCCNC(=O)Nc1c(OC)ccc2c(=O)ccoc12 | 6.48
CCCCCCCCCCC(C)(C)C(=O)Nc1c(Cl)ccc2c1OCCC2=O | 6.82

Please report the measured pIC50 for COc1ccc2c(=O)ccoc2c1NC(=O)C(C)(C)CCCCOc1ccc(C(C)(C)C)cc1
6.72

Please report the measured pIC50 for Cc1ccc2c(c1NC(=O)C(C)(C)CCCCOc1ccc(C(C)(C)C)cc1)OCCC2=O
7.30

Please report the measured pIC50 for COc1ccc2c(c1NC(=O)NCC1(c3ccccc3)CCCC1)OCCC2(C)C
6.16

Please report the measured pIC50 for COc1ccc2c(c1NC(=O)C(C)(C)CCCCCCOc1ccc(N(C)C)cc1)OCCC2=O
7.09

Please report the measured pIC50 for CCCCCCCCCCC(C)(C)C(=O)Nc1c(OC)ccc2c(=O)cc(CC)oc12
6.11

Please report the measured pIC50 for CCCCCCCCCCCCNC(=O)Nc1c(OC)ccc2c1OCCC2(C)C
6.47

Please report the measured pIC50 for Cc1cc(C)c2c(c1NC(=O)C(C)(C)CCCCCCOCC(C)C)OCCC2=O
7.05

Please report the measured pIC50 for Cc1ccc2c(c1NC(=O)C(C)(C)CCCCCCOCC(C)(C)C)OCCC2=O
7.27
